- target of assay: wild-type MTH0830 RFAP synthase (Methanothermobacter thermautotrophicus, UniProt O26918)
- Sequence (O26918 whole entry): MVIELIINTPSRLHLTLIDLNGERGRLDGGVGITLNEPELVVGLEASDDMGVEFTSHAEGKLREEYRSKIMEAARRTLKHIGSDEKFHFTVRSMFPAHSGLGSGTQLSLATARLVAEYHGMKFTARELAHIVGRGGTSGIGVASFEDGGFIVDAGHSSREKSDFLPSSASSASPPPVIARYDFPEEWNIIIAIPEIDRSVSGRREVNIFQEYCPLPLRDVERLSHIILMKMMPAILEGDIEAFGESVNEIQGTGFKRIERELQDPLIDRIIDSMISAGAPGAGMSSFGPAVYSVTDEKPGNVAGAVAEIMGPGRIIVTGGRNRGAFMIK
- experimental details: Isothermal titration calorimetry, wild-type enzyme
- Format: binding
- measurement setup: ITC, 35 °C, in presence of saturating PRPP
result type: Kd

Ask | Field request: Kd | item: Nc1ccc(C(=O)O)cc1
Reply | 960 µM

Data origin, for the record: paper PMC6787355
